Entries and their pIC50 values follow.
tested_target: recombinant human c-Met/HGF receptor (Homo sapiens)
Construct: His tag (pBlueBacHis2A vector); made in house; host or cells: Hi-5 cells (Trichoplusia ni), baculovirus
Sequence (P08581 1078-1337): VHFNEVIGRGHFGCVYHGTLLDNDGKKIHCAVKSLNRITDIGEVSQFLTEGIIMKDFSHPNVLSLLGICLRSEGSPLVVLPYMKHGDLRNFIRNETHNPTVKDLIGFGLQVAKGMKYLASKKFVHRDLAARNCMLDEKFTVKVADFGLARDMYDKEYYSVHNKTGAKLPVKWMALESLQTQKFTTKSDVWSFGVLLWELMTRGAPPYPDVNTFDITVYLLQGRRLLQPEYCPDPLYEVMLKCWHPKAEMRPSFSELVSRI
protocol: In vitro receptor tyrosine kinase assay (DELFIA), c-Met/HGF receptor
Assay type: biochemical
condition: read-out: CMET IC50
pIC50: −log10 of the molar value.

Here is how some compounds turned out for pIC50.
compound: CCCn1cnc(-c2cc3nccc(Oc4ccc(NC(=O)CC(=O)Nc5ccc(F)cc5)cc4F)c3s2)c1
pIC50: > 7.30
//
compound: Cn1cnc(-c2cc3nccc(Oc4ccc(NC(=O)C5CCN(c6ccccc6F)C5=O)cc4F)c3s2)c1 (stereo not shown)
pIC50: 6.60 to 7.30
//
compound: CCCn1cnc(-c2cc3nccc(Oc4ccc(NC(=O)CC(=O)Nc5ccccc5OC)cc4F)c3s2)c1
pIC50: > 7.30
//
compound: CN1CCN(CCN(C)Cc2ccc(-c3cc4nccc(Oc5ccc(NC(=O)CC(=O)N(C)c6ccc(F)cc6)cc5F)c4s3)cc2)CC1
pIC50: > 7.30
//
compound: CCn1cnc(-c2cc3nccc(Oc4ccc(NC(=O)N5CCN(c6ccccc6OC)C5=O)cc4F)c3s2)c1
pIC50: > 7.30
//
compound: CN1CCN(Cc2ccc(-c3cc4nccc(Oc5ccc(NC(=O)CC(=O)N(C)c6ccccc6)cc5F)c4s3)cc2)CC1
pIC50: 6.60 to 7.30
//
compound: O=C(CC(=O)Nc1ccc(Oc2ccnc3cc(-c4cn(CCO)cn4)sc23)c(F)c1)Nc1ccccc1
pIC50: > 7.30
//
compound: CN(C)CC/C=C\c1cc2nccc(Oc3ccc(NC(=O)CC(=O)N(C)c4ccccc4)cc3F)c2s1
pIC50: 6.60 to 7.30

Determine its reported pIC50: CCCn1cnc(-c2cc3nccc(Oc4ccc(NC(=O)CC(=O)Nc5ccccc5F)cc4F)c3s2)c1
> 7.30

Determine its reported pIC50: CCn1cnc(-c2cc3nccc(Oc4ccc(NC(=O)CC(=O)Nc5ccccc5)cc4F)c3s2)c1 [drawing 291]
> 7.30

Determine its reported pIC50: COc1ccccc1NC(=O)CC(=O)Nc1ccc(Oc2ccnc3cc(-c4ccc(OCCCN(C)C)c(OCCCN(C)C)c4)sc23)c(F)c1
> 7.30
